Recorded protein stability index values for a group of variants are listed next.
B1: IFRG15 (parent)
chain: INRADYCPECYPDNPANRSLVLPW

# Variants of: B1
# Run description: protein stability index of a GFP-peptide fusion (GPS, HEK-293T) (PSI 1-6); higher = more stable;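 also: lentivirally expressed fusions sorted by FACS into six bins by GFP to DsRed ratio, PSI derived from sequencing read proportions per bin multiplied by bin number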
# Condition label: c terminus: a fixed tail appended
Lab note: record just the number, no unit beside it.

Request: Quick one: protein stability index of INRADYGPECYPDNPANRSLVLPW [C7G] ?
Response: 2.62

Request: Quick one: protein stability index of IMRADYCPECYPDNPANRSLVLPW [N2M] ?
Response: 1.88

Request: Quick one: protein stability index of INRADYMPECYPDNPANRSLVLPW [C7M] ?
Response: 2.08

Request: Quick one: protein stability index of GNRADYCPECYPDNPANRSLVLPW [I1G] ?
Response: 2.05

Request: Quick one: protein stability index of INRADYCPECYPDNPANPSLVLPW [R18P] ?
Response: 2.38

Request: Quick one: protein stability index of INRADYCPECYPDNPANRKLVLPW [S19K] ?
Response: 2.14

Request: Quick one: protein stability index of INRADYNPECYPDNPANRSLVLPW [C7N] ?
Response: 2.81

Request: Quick one: protein stability index of INRADYCPECYPVNPANRSLVLPW [D13V] ?
Response: 1.63

Request: Quick one: protein stability index of INRADYCPECYPDNPALRSLVLPW [N17L] ?
Response: 1.68

Request: Quick one: protein stability index of INRADYCPFCYPDNPANRSLVLPW [E9F] ?
Response: 1.78

Request: Quick one: protein stability index of NNRADYCPECYPDNPANRSLVLPW [I1N] ?
Response: 3.18

Request: Quick one: protein stability index of INRADYCPECYPDNPANRSLVLPN [W24N] ?
Response: 2.46

Request: Quick one: protein stability index of INRADYVPECYPDNPANRSLVLPW [C7V] ?
Response: 2.34

Request: Quick one: protein stability index of INRADYCPECYPDNPANRSLMLPW [V21M] ?
Response: 2.29

Request: Quick one: protein stability index of INRADYCPRCYPDNPANRSLVLPW [E9R] ?
Response: 2.02

Request: Quick one: protein stability index of INRADYCPECYPDNPANRSQVLPW [L20Q] ?
Response: 2.02

Request: Quick one: protein stability index of INRADYCPECYPDNPANGSLVLPW [R18G] ?
Response: 1.99

Request: Quick one: protein stability index of IWRADYCPECYPDNPANRSLVLPW [N2W] ?
Response: 1.61

Request: Quick one: protein stability index of INRADYCPECYPDNPAIRSLVLPW [N17I] ?
Response: 2.25

Request: Quick one: protein stability index of INRADYCPECYSDNPANRSLVLPW [P12S] ?
Response: 2.03

Request: Quick one: protein stability index of INRADYCPECRPDNPANRSLVLPW [Y11R] ?
Response: 2.72

Request: Quick one: protein stability index of INRADYCNECYPDNPANRSLVLPW [P8N] ?
Response: 1.88

Request: Quick one: protein stability index of INRADYDPECYPDNPANRSLVLPW [C7D] ?
Response: 3.72

Request: Quick one: protein stability index of INRADYCPECYPDNPANRSLFLPW [V21F] ?
Response: 1.54
